Just for reference, patent US8859723 is where these values come from.

Target: T1, hDMX (In-house, 40 kD) (human, UniProt O15151 1-120)
T1 chain: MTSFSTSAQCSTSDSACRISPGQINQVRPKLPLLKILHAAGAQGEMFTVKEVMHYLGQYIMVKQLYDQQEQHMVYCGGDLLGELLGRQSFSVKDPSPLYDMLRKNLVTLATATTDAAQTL
Assay: FP competition
Assay Endpoint: IC50 (nM)

Binder: WTFALYWSQLAS (not fully specified) [SP-696]
IC50 (nM): 379
//
Binder: LTFAFYWAQLAA (not fully specified) [SP-604]
IC50 (nM): 310

[1] LTFAAYWSQLAA (not fully specified) [SP-698]
[2] LTFAAYWVQLAS (not fully specified) [SP-681]
[3] LTFAAYWAQFAS (not fully specified) [SP-586]
Query: Order each entry by recorded IC50, climbing from the minimum. The response must list the labels following the requested ordering.
Result: 1, 2, 3
(1: 157 nM, 2: 395 nM, 3: 673 nM)
